ASSAYED_SYSTEM: ~100 representative kinases (Homo sapiens, UniProt Q9Y243)
Construct: Recombinant protein kinase domains with a concentration of 2 μM
Sequence (Q9Y243 whole entry, the tested form may be a part): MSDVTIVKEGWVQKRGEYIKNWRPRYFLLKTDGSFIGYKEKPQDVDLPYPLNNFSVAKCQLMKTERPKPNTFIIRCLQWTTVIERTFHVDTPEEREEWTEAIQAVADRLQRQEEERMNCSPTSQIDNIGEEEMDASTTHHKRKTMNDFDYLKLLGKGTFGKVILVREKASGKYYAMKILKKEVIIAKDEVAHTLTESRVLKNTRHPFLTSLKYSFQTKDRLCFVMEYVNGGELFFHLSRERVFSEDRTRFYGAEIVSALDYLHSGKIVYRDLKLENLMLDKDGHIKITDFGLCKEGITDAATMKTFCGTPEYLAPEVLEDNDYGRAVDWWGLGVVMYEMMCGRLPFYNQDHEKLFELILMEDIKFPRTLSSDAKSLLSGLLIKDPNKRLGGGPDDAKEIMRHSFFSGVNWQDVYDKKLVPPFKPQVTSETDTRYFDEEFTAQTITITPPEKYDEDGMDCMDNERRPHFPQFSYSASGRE
ASSAY_PROCEDURE: DSF 100 kinase selectivity screen;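 also: compound tested at 20 µM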
Assay type: binding
CONDITIONS: Protein AKT3; average of three replicates
QUANTITY_NAME: dTm

INSERT INTO measurements (compound, result) VALUES
  ('Cc1cc(NC(=O)C2(C(=O)Nc3ccc(F)cc3)CC2)cc(-c2c[nH]c3ncnc(N4CCOCC4)c23)c1', '-0.13 K'),
  ('COc1cc2c(Oc3ccc(NC(=O)C4(C(=O)Nc5ccc(F)cc5)CC4)cc3F)ccnc2cc1OCCCN1CCOCC1 [Foretinib, reference compound]', '-0.34 K'),
  ('COc1cc(C(=O)N2CCOCC2)c(F)cc1Nc1nc(N(C)C)c2c(Cl)c[nH]c2n1', '0.29 K'),
  ('CNC(=O)c1cc(Oc2ccc(NC(=O)Nc3cc(C(C)(C)C)nn3-c3ccc4ncccc4c3)c(F)c2)ccn1 [Rebastinib, reference compound]', '-0.41 K'),
  ('COc1cc(NC(=O)C2(C(=O)Nc3cccc(-c4c[nH]c5ncnc(N6CCOCC6)c45)c3)CC2)ccc1F', '0.58 K'),
  ('COc1ccc(NC(=O)C2(C(=O)Nc3cccc(-c4c[nH]c5ncnc(N6CCOCC6)c45)c3)CC2)cc1', '0.25 K'),
  ('CCc1ccc(NC(=O)C2(C(=O)Nc3cccc(-c4c[nH]c5ncnc(N6CCOCC6)c45)c3)CC2)cc1', '-0.80 K');

====

ASSAYED_SYSTEM: ~100 representative kinases (Homo sapiens, UniProt Q16654)
Construct: Recombinant protein kinase domains with a concentration of 2 μM
Sequence (Q16654 whole entry, the tested form may be a part): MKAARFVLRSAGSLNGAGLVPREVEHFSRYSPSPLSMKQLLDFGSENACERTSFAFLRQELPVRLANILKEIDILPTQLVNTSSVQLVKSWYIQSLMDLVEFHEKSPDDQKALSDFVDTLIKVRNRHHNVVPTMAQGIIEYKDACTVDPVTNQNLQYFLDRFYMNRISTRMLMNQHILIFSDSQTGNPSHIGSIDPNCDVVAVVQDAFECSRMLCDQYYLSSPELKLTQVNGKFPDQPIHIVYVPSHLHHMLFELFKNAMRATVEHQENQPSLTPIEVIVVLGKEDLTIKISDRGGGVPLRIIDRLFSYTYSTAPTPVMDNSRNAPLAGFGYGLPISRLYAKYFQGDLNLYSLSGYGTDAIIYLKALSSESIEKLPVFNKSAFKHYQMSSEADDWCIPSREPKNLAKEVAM
ASSAY_PROCEDURE: DSF 100 kinase selectivity screen;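 also: compound tested at 20 µM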
Format: binding
CONDITIONS: protein PDK4; average of three replicates
Each record here notes measured dTm.
QUANTITY_NAME: dTm (K)

INSERT INTO measurements (compound, units_text, recorded_number) VALUES
  ('CCNc1nc(Nc2cc(F)c(C(=O)N3CCOCC3)cc2OC)ncc1C(F)(F)F', 'K', -0.0168),
  ('Cc1ccc(C(=O)Nc2ccc(CN3CCN(C)CC3)c(C(F)(F)F)c2)cc1C#Cc1cnc2[nH]ncc2c1 [GZD-824, reference compound]', 'K', -0.28),
  ('Cn1cc(-c2c[nH]c3ncnc(N4CCOCC4)c23)cc1C#N', 'K', -0.55),
  ('Cc1ccc(C(=O)Nc2ccc(CN3CCN(C)CC3)c(C(F)(F)F)c2)cc1C#Cc1cnc2cccnn12 [Ponatinib, reference compound]', 'K', -0.09),
  ('C[C@@H]1CN(c2cc(-c3n[nH]c4ccc(OC5(C)CC5)cc34)ncn2)C[C@H](C)O1', 'K', -0.0742),
  ('Cc1ccc(C(=O)Nc2ccc(CN3CCN(C)CC3)c(C(F)(F)F)c2)cc1C#Cc1c[nH]c2ncnc(N3CCOCC3)c12', 'K', -0.54);

====

ASSAYED_SYSTEM: ~100 representative kinases (Homo sapiens)
Construct: Recombinant protein kinase domains with a concentration of 2 μM
ASSAY_PROCEDURE: DSF 100 kinase selectivity screen;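 also: compound tested at 20 µM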
Format: binding
CONDITIONS: protein MAPK15; average of three replicates
Each record here notes measured dTm.
QUANTITY_NAME: dTm (K)

INSERT INTO measurements (compound, recorded_number) VALUES
  ('Cc1ccc(C(=O)Nc2ccc(CN3CCN(C)CC3)c(C(F)(F)F)c2)cc1C#Cc1cnc2[nH]ncc2c1 [GZD-824, reference compound]', 5.29),
  ('Cc1ccc(-n2nc(C(C)(C)C)cc2NC(=O)Nc2cccc(-c3c[nH]c4nc(Cl)nc(N5CCOCC5)c34)c2)cc1 [Compound 30]', 6.72),
  ('CCc1ccc(NC(=O)C2(C(=O)Nc3cccc(-c4c[nH]c5ncnc(N6CCOCC6)c45)c3)CC2)cc1 [Compound 15]', 5.20),
  ('CC(C)(C)c1cc(NC(=O)Nc2cccc(-c3c[nH]c4ncnc(N5CCOCC5)c34)c2)n(-c2ccc3ncccc3c2)n1 [Compound 28]', 14.38),
  ('Cc1cc(NC(=O)C2(C(=O)Nc3ccc(F)cc3)CC2)cc(-c2c[nH]c3ncnc(N4CCOCC4)c23)c1 [Compound 6]', 5.91);
